measure-name: melting point

# compound, melting point
records = [
    ("CCC(C)(C)C(=O)C(=O)N1CCC[C@H]1C(=O)NNC(=O)c1cccs1 [Compound 140]", "72 to 74 °C"),
    ("CCC(C)(C)C(=O)C(=O)N1CCC[C@H]1CC#N [Compound 28]", "91 to 93 °C"),
    ("CCC(C)(C)C(=O)C(=O)N1CCC[C@H]1C(=O)NNS(=O)(=O)c1ccc(F)cc1 [Compound 147]", "57 to 60 °C"),
]

Here is another compound to look at.
According to the records, this compound CCC(C)(C)C(=O)C(=O)N1CCC[C@H]1C(=O)NNS(=O)(=O)c1ccc(C)cc1 [Compound 146] displays melting point of 59 to 61 °C

====

experiment: Clearance; format: in vitro ADME
measure-name: Clearance (µL/min)

# compound, Clearance (µL/min)
measured = [
    ("CCC(C)(C)C(=O)C(=O)N1CCC[C@H]1C(=O)OCCCc1cccnc1 [GPI 1046]", 63.8),
    ("O=C(SCCCc1ccccc1)[C@@H]1CCCN1S(=O)(=O)Cc1ccccc1 [C]", 31.1),
    ("CCC(C)(C)C(=O)C(=O)N1CCC[C@H]1C(=O)SCCC(c1ccccc1)c1ccccc1 [M]", 12.5),
    ("CCC(C)(C)C(=O)C(=O)N1CCC[C@H]1C(=O)O [L]", 5.2),
]

[a] CN(C)C(=O)N1CCC[C@H]1C(=O)SCCCc1ccccc1 [N]
[b] CCC(C)(C)C(=O)C(=O)N1CCCC[C@H]1C(=O)SCCC(c1ccccc1)c1ccccc1 [K]
[c] CCC(C)(C)C(=O)C(=O)N1CCC[C@H]1C(=O)CCCCc1cccnc1 [J]
[d] CCC(C)(C)C(=O)C(=O)N1CCCCC1C(=O)OC(CCc1ccccc1)CCc1ccccc1 (stereo not drawn) [E]
[e] O=C(OCCCc1cccnc1)[C@@H]1CCCN1C(=S)NC1CCCCC1 [I]
Problem: Sort low-to-high on Clearance, please. Form entry: labels listed in requested order.
Result: c, b, e, a, d

// provenance: patent US7153883B2
